target: GPR119 receptor (Homo sapiens); construct: expressed in transfected cells; assay: HTRF assay for direct cAMP measurement in CHO-K1 cells stably expressing the GPR119 receptor; assay type: cell-based; conditions: CHO-K1 cells stably expressing GPR119; read-out: EC50, HTRF assay
Sequence (Q8TDV5 2-335 limits assumed): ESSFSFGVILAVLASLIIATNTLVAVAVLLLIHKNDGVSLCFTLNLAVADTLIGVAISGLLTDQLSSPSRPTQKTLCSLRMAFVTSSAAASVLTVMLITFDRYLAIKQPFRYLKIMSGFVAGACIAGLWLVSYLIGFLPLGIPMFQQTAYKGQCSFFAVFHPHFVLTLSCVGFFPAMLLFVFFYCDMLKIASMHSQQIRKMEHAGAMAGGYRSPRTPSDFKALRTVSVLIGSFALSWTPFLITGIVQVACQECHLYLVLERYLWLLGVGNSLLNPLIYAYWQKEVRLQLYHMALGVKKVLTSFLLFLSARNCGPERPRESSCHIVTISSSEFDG
readout-label: EC50 (µM)
# value in µM; strip the unit string

Please supply the value of reported EC50 for the item CC(C)(F)c1noc(C2CCN(c3ncnc(Nc4ccc(C(=O)O)cc4F)c3F)CC2)n1
100
